# Tested on: NCI-60 cell lines
# Format: cell-based, human
METRIC_NAME: Cell Line (NCI-60 cell line the peptide is associated with)

For orientation, consider the following solved cases.
[[record]]
substance = "SRLSYYA"
assayed_system = "NCI-60 cell lines"
test_result = "KM-12C Colon"

[[record]]
substance = "RYRVSVY"
assayed_system = "NCI-60 cell lines"
test_result = "KM-12C Colon"

[[record]]
substance = "RQLVSPA"
assayed_system = "NCI-60 cell lines"
test_result = "HT-29 Colon"

[[record]]
substance = "RSSSSTR"
assayed_system = "NCI-60 cell lines"
test_result = "SNB-75 CNS"

[[record]]
substance = "RGGLPRG"
assayed_system = "NCI-60 cell lines"
test_result = "HCT-15 Colon"


Field: Cell Line (NCI-60 cell line the peptide is associated with) (NCI-60 cell lines). Entry: VVASLPH
HT-29 Colon

Okay, and ARGVSAP ?
KM-12C Colon

###

# Test system: NCI-60 cell lines
# Format: cell-based, human
METRIC_NAME: Cell Line (NCI-60 cell line the peptide is associated with)

For orientation, consider the following solved cases.
[[record]]
substance = "HAELVSL"
test_result = "KM-12C Colon"

[[record]]
substance = "GPSSMTF"
test_result = "COLO-205-Colon"

[[record]]
substance = "LLSPRGT"
test_result = "SF-295 CNS"

[[record]]
substance = "YSGRLVM"
test_result = "SNB-75 CNS"

[[record]]
substance = "DAGGMDL"
test_result = "HT-29 Colon"

[[record]]
substance = "GRGVLAF"
test_result = "KM-12C Colon"


Which value of Cell Line (NCI-60 cell line the peptide is associated with) has been reported for SVYALRS in the records?
COLO-205-Colon

Okay, and FGGRSLS ?
SNB-75 CNS

###

# Tested on: NCI-60 cell lines
# Format: cell-based, human
METRIC_NAME: Cell Line with which the peptide (and its tripeptide motif) is associated

For orientation, consider the following solved cases.
[[record]]
substance = "YRGSSGK"
test_result = "RPMI-8226-Leukemia"

[[record]]
substance = "GGLSVDL"
test_result = "EKVX-Lung"

[[record]]
substance = "REAERVS"
test_result = "H322-Lung"

[[record]]
substance = "RLRAASY"
test_result = "RPMI-8226-Leukemia"

[[record]]
substance = "RRVSCDL"
test_result = "Hop-62-Lung"

[[record]]
substance = "AAVFVRS"
test_result = "K-562-Leukemia"

[[record]]
substance = "WFSWLVS"
test_result = "H460-Lung"

[[record]]
substance = "AIRAGSD"
test_result = "K-562-Leukemia"


Which value of Cell Line with which the peptide (and its tripeptide motif) is associated has been reported for EFTRRAS in the records?
A549-Lung

Okay, and LFAVAAV ?
Hop-62-Lung

Okay, and SSGSSNG ?
K-562-Leukemia

Okay, and FRASSEV ?
Hop-62-Lung

Okay, and GNYGSVL ?
Hop-92-Lung

Okay, and RAMGGAG ?
RPMI-8226-Leukemia

Okay, and WGWRASS ?
A549-Lung

Okay, and FLLRSSF ?
SR Leukemia

Okay, and AGRICEG ?
CCRF-CEM Leukemia

Okay, and PAFGPSR ?
RPMI-8226-Leukemia

Okay, and PFPARSS ?
H23-Lung

Okay, and DVETRGS ?
CCRF-CEM Leukemia

Okay, and RRGSSRN ?
SR Leukemia

Okay, and RERGAVQ ?
CCRF-CEM Leukemia

Okay, and GVSIRQL ?
H460-Lung

Okay, and AVLVAGG ?
CCRF-CEM Leukemia

Values from patent US7781565B2
